Tested on: 941728-121-R-J1-PDC complex spheroid viability
Experiment: Anticancer human tumor 941728-121-R-J1-PDC patient-derived lung adenocarcinoma cell line growth inhibition [RAS]; active means viability on the fitted dose curve at most 10% of control; inactive means the rest
Conditions: second compound 0.03 µM; first compound 0.0949 µM
The reply should be one of these categories: Yes = active, No = inactive

Ask | Just curious, what result did CC1(C)CCC(Nc2ncc(C(F)(F)F)c(-c3c[nH]c4c(P(C)(C)=O)c(C#N)ccc34)n2)CN1 (centres undefined) + CCn1c(-c2cc(N3CCN(C)CC3)cnc2C(C)OC)c2c3cc(ccc31)-c1csc(n1)CC(NC(=O)C1CC1C)C(=O)N1CCCC(N1)C(=O)OCC(C)(C)C2 get here?
Reply | No

Ask | Just curious, what result did CC1(C)CCC(Nc2ncc(C(F)(F)F)c(-c3c[nH]c4c(P(C)(C)=O)c(C#N)ccc34)n2)CN1 (centres undefined) + CCn1c(-c2cccnc2C(C)OC)c2c3cc(ccc31)N1CCOC(CC(NC(=O)C(C(C)C)N(C)C(=O)C3(F)CCN(C(=O)C#CC(C)(C)N(C)C)CC3)C(=O)N3CCCC(N3)C(=O)OCC(C)(C)C2)C1 get here?
Reply | No

Ask | Just curious, what result did CCc1c2c(nc3ccc(O)cc13)-c1cc3c(c(=O)n1C2)COC(=O)[C@]3(O)CC + CCn1c(-c2cccnc2C(C)OC)c2c3cc(ccc31)N1CCOC(CC(NC(=O)C(C(C)C)N(C)C(=O)C3(F)CCN(C(=O)C#CC(C)(C)N(C)C)CC3)C(=O)N3CCCC(N3)C(=O)OCC(C)(C)C2)C1 get here?
Reply | No

Ask | Just curious, what result did CCc1c2c(nc3ccc(O)cc13)-c1cc3c(c(=O)n1C2)COC(=O)[C@]3(O)CC + CCn1c(-c2cc(N3CCN(C)CC3)cnc2C(C)OC)c2c3cc(ccc31)-c1csc(n1)CC(NC(=O)C1CC1C)C(=O)N1CCCC(N1)C(=O)OCC(C)(C)C2 get here?
Reply | Yes

====

Tested on: 941728-121-R-J1-PDC complex spheroid viability
Assay: Anticancer human tumor 941728-121-R-J1-PDC cell line growth inhibition [RAS];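 further: spheroids exposed to compounds for 7 days before readout; 100% = DMSO vehicle control viability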
Details: second compound 0.3 µM; first compound 0.00316 µM; active compounds read low
ENDPOINT: viability, T/C (%)
Write the answer as a number in %, unit excluded.

Ask | Identify the measured viability, T/C of C=CC(=O)Nc1cc(Nc2nccc(-c3cn(C)c4ccccc34)n2)c(OC)cc1N(C)CCN(C)C + CCn1c(-c2cc(N3CCN(C)CC3)cnc2C(C)OC)c2c3cc(ccc31)-c1csc(n1)CC(NC(=O)C1CC1C)C(=O)N1CCCC(N1)C(=O)OCC(C)(C)C2 for 941728-121-R-J1-PDC complex spheroid viability.
Reply | 13.1

Ask | Identify the measured viability, T/C of C=CC(=O)N1CCN(c2nc(OCC3CCCN3C)nc3c(F)c(-c4nc(N)cc(C)c4C(F)(F)F)c(Cl)cc23)C(C)C1 (centres undefined) + CCn1c(-c2cc(N3CCN(C)CC3)cnc2C(C)OC)c2c3cc(ccc31)-c1csc(n1)CC(NC(=O)C1CC1C)C(=O)N1CCCC(N1)C(=O)OCC(C)(C)C2 for 941728-121-R-J1-PDC complex spheroid viability.
Reply | 17

Ask | Identify the measured viability, T/C of CC(C)n1nc(-c2ccc3oc(N)nc3c2)c2c(N)ncnc21 + CCn1c(-c2cc(N3CCN(C)CC3)cnc2C(C)OC)c2c3cc(ccc31)-c1csc(n1)CC(NC(=O)C1CC1C)C(=O)N1CCCC(N1)C(=O)OCC(C)(C)C2 for 941728-121-R-J1-PDC complex spheroid viability.
Reply | 12.9

Ask | Identify the measured viability, T/C of Nc1ccn(C2OC(CO)C(O)C2(F)F)c(=O)n1 (centres undefined) + CCn1c(-c2cc(N3CCN(C)CC3)cnc2C(C)OC)c2c3cc(ccc31)-c1csc(n1)CC(NC(=O)C1CC1C)C(=O)N1CCCC(N1)C(=O)OCC(C)(C)C2 for 941728-121-R-J1-PDC complex spheroid viability.
Reply | 10.7

====

Tested on: 941728-121-R-J1-PDC complex spheroid viability
Assay: Anticancer human tumor 941728-121-R-J1-PDC cell line growth inhibition [RAS]; active = viability on the fitted dose curve at most 10% of control; inactive = the rest;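 further: spheroids exposed to compounds for 7 days before readout; 100% = DMSO vehicle control viability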
Conditions: second compound 0.0949 µM; first compound 0.316 µM
The reply should be one of these categories: 1.0 for active, 0.0 for inactive

Ask | Just curious, what result did CC1(O)CCCC1n1c(=O)c(C(F)F)cc2cnc(NC3CCN(S(C)(=O)=O)CC3)nc21 (stereo not drawn) + CCn1c(-c2cccnc2C(C)OC)c2c3cc(ccc31)N1CCOC(CC(NC(=O)C(C(C)C)N(C)C(=O)C3(F)CCN(C(=O)C#CC(C)(C)N(C)C)CC3)C(=O)N3CCCC(N3)C(=O)OCC(C)(C)C2)C1 get here?
Reply | 0.0

Ask | Just curious, what result did CCC(CC)c1cc(NC2CCC(N)C2)n2nccc2n1 (stereo not drawn) + CCn1c(-c2cccnc2C(C)OC)c2c3cc(ccc31)N1CCOC(CC(NC(=O)C(C(C)C)N(C)C(=O)C3(F)CCN(C(=O)C#CC(C)(C)N(C)C)CC3)C(=O)N3CCCC(N3)C(=O)OCC(C)(C)C2)C1 get here?
Reply | 0.0

Ask | Just curious, what result did Nc1ccn(C2OC(CO)C(O)C2(F)F)c(=O)n1 (stereo not drawn) + CCn1c(-c2cccnc2C(C)OC)c2c3cc(ccc31)N1CCOC(CC(NC(=O)C(C(C)C)N(C)C(=O)C3(F)CCN(C(=O)C#CC(C)(C)N(C)C)CC3)C(=O)N3CCCC(N3)C(=O)OCC(C)(C)C2)C1 get here?
Reply | 0.0

Ask | Just curious, what result did O=C(c1ccc(F)c(F)c1Nc1ccc(I)cc1F)N1CC(O)([C@@H]2CCCCN2)C1 + CCn1c(-c2cccnc2C(C)OC)c2c3cc(ccc31)N1CCOC(CC(NC(=O)C(C(C)C)N(C)C(=O)C3(F)CCN(C(=O)C#CC(C)(C)N(C)C)CC3)C(=O)N3CCCC(N3)C(=O)OCC(C)(C)C2)C1 get here?
Reply | 0.0

Ask | Just curious, what result did Cc1nc(N2CCC3(CC2)COC(C)C3N)c(CO)nc1Sc1ccnc(N)c1Cl (stereo not drawn) + CCn1c(-c2cccnc2C(C)OC)c2c3cc(ccc31)N1CCOC(CC(NC(=O)C(C(C)C)N(C)C(=O)C3(F)CCN(C(=O)C#CC(C)(C)N(C)C)CC3)C(=O)N3CCCC(N3)C(=O)OCC(C)(C)C2)C1 get here?
Reply | 0.0

Ask | Just curious, what result did O=C(c1ccc(F)c(F)c1Nc1ccc(I)cc1F)N1CC(O)([C@@H]2CCCCN2)C1 + CCn1c(-c2cc(N3CCN(C)CC3)cnc2C(C)OC)c2c3cc(ccc31)-c1csc(n1)CC(NC(=O)C1CC1C)C(=O)N1CCCC(N1)C(=O)OCC(C)(C)C2 get here?
Reply | 0.0

Ask | Just curious, what result did CC(Nc1ccc2c(c1)OCCn1cc(N3C(=O)OCC3C(F)F)nc1-2)C(N)=O (stereo not drawn) + CCn1c(-c2cc(N3CCN(C)CC3)cnc2C(C)OC)c2c3cc(ccc31)-c1csc(n1)CC(NC(=O)C1CC1C)C(=O)N1CCCC(N1)C(=O)OCC(C)(C)C2 get here?
Reply | 1.0

Ask | Just curious, what result did C[C@@H](NC(=O)c1ncnc(N)c1Cl)c1ncc(C(=O)Nc2cc(C(F)(F)F)c(Cl)cn2)s1 + CCn1c(-c2cccnc2C(C)OC)c2c3cc(ccc31)N1CCOC(CC(NC(=O)C(C(C)C)N(C)C(=O)C3(F)CCN(C(=O)C#CC(C)(C)N(C)C)CC3)C(=O)N3CCCC(N3)C(=O)OCC(C)(C)C2)C1 get here?
Reply | 0.0

====

Can you tell me viability, T/C for the items I'm about to list?
System: 941728-121-R-J1-PDC complex spheroid viability
Experiment: Anticancer human tumor 941728-121-R-J1-PDC cell line growth inhibition [RAS];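 further: spheroids exposed to compounds for 7 days before readout; 100% = DMSO vehicle control viability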
Conditions: second compound 0.00316 µM; first compound 0.1 µM; active compounds read low
Write the answer as a number in %, unit excluded.

Ask | May I ask what viability, T/C has been recorded for O=C(c1ccc(F)c(F)c1Nc1ccc(I)cc1F)N1CC(O)([C@@H]2CCCCN2)C1 + C=CC(=O)N1CCN(c2nc(OCC3CCCN3C)nc3c(F)c(-c4nc(N)cc(C)c4C(F)(F)F)c(Cl)cc23)C(C)C1 ?
Reply | 14.5

Ask | May I ask what viability, T/C has been recorded for C[C@@H](NC(=O)c1ncnc(N)c1Cl)c1ncc(C(=O)Nc2cc(C(F)(F)F)c(Cl)cn2)s1 + C=CC(=O)N1CCN(c2nc(OCC3CCCN3C)nc3c(F)c(-c4nc(N)cc(C)c4C(F)(F)F)c(Cl)cc23)C(C)C1 ?
Reply | 21

Ask | May I ask what viability, T/C has been recorded for CC(C)n1nc(-c2ccc3oc(N)nc3c2)c2c(N)ncnc21 + C=CC(=O)N1CCN(c2nc(OCC3CCCN3C)nc3c(F)c(-c4nc(N)cc(C)c4C(F)(F)F)c(Cl)cc23)C(C)C1 ?
Reply | 9.02

Ask | May I ask what viability, T/C has been recorded for NC1c2ccccc2OC12CCN(c1cnc3c(N4CCCc5ncccc54)n[nH]c3n1)CC2 (stereo not given) + C=CC(=O)N1CCN(c2nc(OCC3CCCN3C)nc3c(F)c(-c4nc(N)cc(C)c4C(F)(F)F)c(Cl)cc23)C(C)C1 ?
Reply | 15.1

Ask | May I ask what viability, T/C has been recorded for C=CC(=O)Nc1cc(Nc2nccc(-c3cn(C)c4ccccc34)n2)c(OC)cc1N(C)CCN(C)C + C=CC(=O)N1CCN(c2nc(OCC3CCCN3C)nc3c(F)c(-c4nc(N)cc(C)c4C(F)(F)F)c(Cl)cc23)C(C)C1 ?
Reply | 21.1

Ask | May I ask what viability, T/C has been recorded for CC1(O)CCCC1n1c(=O)c(C(F)F)cc2cnc(NC3CCN(S(C)(=O)=O)CC3)nc21 (stereo not given) + C=CC(=O)N1CCN(c2nc(OCC3CCCN3C)nc3c(F)c(-c4nc(N)cc(C)c4C(F)(F)F)c(Cl)cc23)C(C)C1 ?
Reply | 22.3

Ask | May I ask what viability, T/C has been recorded for CC(C)NCC(C(=O)N1CCN(c2ncnc3c2C(C)CC3O)CC1)c1ccc(Cl)cc1 (stereo not given) + C=CC(=O)N1CCN(c2nc(OCC3CCCN3C)nc3c(F)c(-c4nc(N)cc(C)c4C(F)(F)F)c(Cl)cc23)C(C)C1 ?
Reply | 17.8

Ask | May I ask what viability, T/C has been recorded for CCN1CCN(Cc2ccc(Nc3ncc(F)c(-c4cc(F)c5nc(C)n(C(C)C)c5c4)n3)nc2)CC1 + C=CC(=O)N1CCN(c2nc(OCC3CCCN3C)nc3c(F)c(-c4nc(N)cc(C)c4C(F)(F)F)c(Cl)cc23)C(C)C1 ?
Reply | 20.8

Ask | May I ask what viability, T/C has been recorded for CC(=O)OC12COC1CC(O)C1(C)C(=O)C(O)C3=C(C)C(OC(=O)C(O)C(NC(=O)OC(C)(C)C)c4ccccc4)CC(O)(C(OC(=O)c4ccccc4)C21)C3(C)C (stereo not given) + C=CC(=O)N1CCN(c2nc(OCC3CCCN3C)nc3c(F)c(-c4nc(N)cc(C)c4C(F)(F)F)c(Cl)cc23)C(C)C1 ?
Reply | 13.3

Ask | May I ask what viability, T/C has been recorded for CCC(CC)c1cc(NC2CCC(N)C2)n2nccc2n1 (stereo not given) + C=CC(=O)N1CCN(c2nc(OCC3CCCN3C)nc3c(F)c(-c4nc(N)cc(C)c4C(F)(F)F)c(Cl)cc23)C(C)C1 ?
Reply | 18.1

Where do the numbers come from? From PubChem BioAssay AID2060896.
